- assay_info: Drug level in blood of rat complete Freund's adjuvant-induced inflammatory pain model at 30 mg/kg, po after 1 hr
- Assay type: ADME, organism-based
- Set-up: dose 30 mg/kg, route oral
- stated_conditions: read-out: Drug uptake
recorded_endpoint: concentration at 1 h (µM)
Report the figure in µM without appending any unit label.

Looking up "Cc1cc(C(=O)NN2CCOCC2)nn1Cc1cc(Cl)cc2cc(C(C)C)oc12" , I see its concentration at 1 h listed as 10.2

====

- assay_info: Ratio of drug level in brain to blood in rat complete Freund's adjuvant-induced inflammatory pain model at 30 mg/kg, po after 1 hr
- Format: ADME, organism-based
- Set-up: dose 30 mg/kg, route oral
- stated_conditions: read-out: BBR
recorded_endpoint: Kp at 1 h
API note: the answer field is a bare number with no unit suffix.

Input "Cc1cc(C(=O)NN2CCOCC2)nn1Cc1cc(Cl)cc2cc(C(C)C)oc12" . Output Kp at 1 h: 1.05
